target: hPK-M2 (Homo sapiens)
Sequence (P14618 whole entry): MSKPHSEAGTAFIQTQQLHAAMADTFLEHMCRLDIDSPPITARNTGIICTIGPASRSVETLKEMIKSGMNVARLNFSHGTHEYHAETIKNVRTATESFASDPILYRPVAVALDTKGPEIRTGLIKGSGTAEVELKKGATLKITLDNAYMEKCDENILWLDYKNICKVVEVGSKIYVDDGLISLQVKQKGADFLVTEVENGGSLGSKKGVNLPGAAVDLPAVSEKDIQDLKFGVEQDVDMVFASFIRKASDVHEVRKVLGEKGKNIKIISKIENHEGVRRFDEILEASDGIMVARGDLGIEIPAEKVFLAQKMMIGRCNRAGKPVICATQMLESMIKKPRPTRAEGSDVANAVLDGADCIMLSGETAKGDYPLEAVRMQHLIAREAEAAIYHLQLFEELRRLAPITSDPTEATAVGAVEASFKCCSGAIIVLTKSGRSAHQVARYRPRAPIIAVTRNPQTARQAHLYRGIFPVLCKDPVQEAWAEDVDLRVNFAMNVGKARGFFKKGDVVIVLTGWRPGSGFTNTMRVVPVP
protocol-description: Luminescent pyruvate kinase-luciferase coupled assay (KinaseGlo)
Type: biochemical
condition-details: KinaseGlo; % activation at 57 μM of compound
Provide the recorded hPK, M2 Max. Res. for the entries that follow.
Write your answer as a measured quantity: the number, then the unit.

Exam item: What does the record list as hPK, M2 Max. Res. for "O=S(=O)(c1cccc(O)c1)N1CCN(S(=O)(=O)c2c(F)cccc2F)CC1" ?
Marked response: 89.61%

Exam item: # iterate: "CC(=O)Nc1cccc(S(=O)(=O)N2CCCN(S(=O)(=O)c3ccc4c(c3)OCCO4)CC2)c1"
Marked response: 91.11%

Exam item: Same lookup for "Nc1ccc(S(=O)(=O)N2CCN(S(=O)(=O)c3ccc4c(c3)OCCO4)CC2)cc1" , please.
Marked response: 91.84%

Exam item: Same read-out for "COc1cc(F)c(S(=O)(=O)N2CCCN(S(=O)(=O)c3ccc(N)cc3)CC2)c(F)c1" ?
Marked response: 89.36%
